# assayed system: recombinant human stromelysin (Homo sapiens, UniProt P08254)
# Sequence (P08254 100-477): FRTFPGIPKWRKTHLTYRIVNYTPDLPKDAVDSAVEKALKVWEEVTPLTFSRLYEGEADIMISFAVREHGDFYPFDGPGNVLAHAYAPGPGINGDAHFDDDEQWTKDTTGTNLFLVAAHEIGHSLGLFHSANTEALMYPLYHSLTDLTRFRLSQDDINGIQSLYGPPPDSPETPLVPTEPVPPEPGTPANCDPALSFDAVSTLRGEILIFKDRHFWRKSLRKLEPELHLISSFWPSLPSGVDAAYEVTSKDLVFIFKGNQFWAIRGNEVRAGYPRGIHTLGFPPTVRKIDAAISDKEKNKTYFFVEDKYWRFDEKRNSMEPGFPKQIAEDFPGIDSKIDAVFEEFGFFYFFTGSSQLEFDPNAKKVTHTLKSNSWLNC
# measurement notes: inhibition of stromelysin activity (hydrolysis of Substance P, HPLC)
# assay setup: Substance P substrate, 30 minutes at 37° C.
observable: IC50

IC50 measured on CCO[C@H]1CC[C@@](CS)(C(=O)N[C@@H](Cc2ccccc2)C(=O)Nc2ccccc2)CC1 [2(e)] = ~70 nM

###

# assayed system: Human recombinant fibroblast collagenase (collagenase-1) (Homo sapiens, UniProt P03956)
# Sequence (P03956 100-469): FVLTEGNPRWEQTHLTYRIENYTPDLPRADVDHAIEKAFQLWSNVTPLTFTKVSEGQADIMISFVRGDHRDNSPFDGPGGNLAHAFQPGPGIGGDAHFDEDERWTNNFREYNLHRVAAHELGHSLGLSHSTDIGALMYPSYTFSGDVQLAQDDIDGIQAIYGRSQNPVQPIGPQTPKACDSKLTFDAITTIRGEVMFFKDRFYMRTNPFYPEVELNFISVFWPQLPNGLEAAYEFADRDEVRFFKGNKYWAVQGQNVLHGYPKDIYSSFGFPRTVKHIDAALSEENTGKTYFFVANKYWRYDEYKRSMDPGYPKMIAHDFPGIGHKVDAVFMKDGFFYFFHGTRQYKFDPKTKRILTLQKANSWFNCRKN
# measurement notes: Collagenase-1 inhibitory activity (bovine type I collagen digestion, Coomasie blue)
# assay setup: 2 hours at 35° C., read-out: IC50 for inhibition of collagenase-1 activity
pIC50: −log10 of the molar value.
observable: pIC50

pIC50 measured on CNC(=O)[C@H](Cc1ccccc1)NC(=O)C1(C(S)CCc2ccccc2)CCCCC1 (stereo partly shown) = ~6.70

###

# assayed system: collagenase-3 (Homo sapiens, UniProt P45452)
observable: IC50

IC50 measured on CNC(=O)[C@H](Cc1ccccc1)NC(=O)C1(C(S)CCc2ccccc2)CCCCC1 (stereo partly shown) [2(d)] = ~20 nM
